targetSystem: GST tagged LXRalpha LBD (ligand binding domain) (Homo sapiens)
Construct: purchased Invitrogen pv4655
Sequence (Q13133 209-447 limits assumed): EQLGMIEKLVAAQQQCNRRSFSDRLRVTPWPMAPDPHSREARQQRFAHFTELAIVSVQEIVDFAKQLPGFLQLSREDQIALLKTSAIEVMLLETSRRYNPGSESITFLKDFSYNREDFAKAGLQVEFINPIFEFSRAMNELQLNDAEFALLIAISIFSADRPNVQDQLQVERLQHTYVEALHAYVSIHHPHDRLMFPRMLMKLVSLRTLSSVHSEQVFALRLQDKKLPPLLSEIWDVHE
assayMethodText: LanthaScreen TR-FRET Liver X Receptor Coactivator Assay, LXR alpha-LBD (co-activator recruitment; IP and % Emax relative to T0901317)
Format: biochemical
assayConditions: efficacy at max dose in relation to reference T0901317, LXR alpha-LBD; read-out: LXR alpha actiivty at max dose (%)
measure: Emax (%)

Given the molecule CN(C)C(=O)c1ccc(N2CCC(CCCNC(=O)C(O)(c3ccccc3)C(F)(F)F)CC2)nc1Cl (stereo not shown) , what is its reported Emax?
23

Given the molecule CN(C)C(=O)c1ccc(N2CCC(CCCN(C)C(=O)[C@@](O)(c3ccccc3)C3CC3)CC2)nc1Cl , what is its reported Emax?
26

P: COc1cccc([C@@](O)(C(=O)N(C)CCCC2CCN(c3ccc(C(=O)N(C)C)c(Cl)n3)CC2)C(F)(F)F)c1
Q: CN(C)C(=O)c1ccc(N2CCC(CCCNC(=O)[C@](O)(c3cccc(C4CC4)c3)C(F)(F)F)CC2)nc1Cl
Of P and Q , which carries the smaller reported Emax figure? Indicate your choice by writing its label.
Q
